endpoint-label: melting point

INSERT INTO measurements (compound, result) VALUES
  ('COc1c(C)c(C=O)c(OC)c2ccccc12', '95 to 96 °C'),
  ('O=C1c2ccccc2-c2ccc(F)cc21', '113 to 115 °C'),
  ('Fc1ccc(-c2cc3ncnc(Nc4ccc5[nH]ccc5c4)c3s2)cc1Cl', '175 to 183 °C'),
  ('CC(=O)OC/C(=C(\C(=O)N(C)CC(C)(C)SN=O)c1ccc(F)cc1)c1ccc(S(C)(=O)=O)cc1', '37 to 38 °C'),
  ('COCC(COC)Nc1cc(C)nn2c(-c3ccc(Cl)cc3Cl)c(C)cc12', '154 to 155 °C'),
  ('CCC(O)(CC)c1cc(C)c(-c2cc(OCc3ccc(CO)c(CO)c3)ccc2C)c(C)c1', '128 °C'),
  ('CCOC(=O)c1csc(Cc2ccc([N+](=O)[O-])cc2)n1', '122 to 123 °C'),
  ('C=C(CS(=O)(=O)Cc1ccccc1)c1ccccc1', '118 °C'),
  ('CCOC(=O)c1ccc(COc2cccc(O)c2C=O)cc1', '105 to 107 °C'),
  ('CCOC(=O)c1cccc2c1N(CCN1CC=C(c3c[nH]c4cc(F)ccc34)CC1)S(=O)(=O)N(C(C)C)C2', '95 to 97 °C'),
  ('COC(=O)C1=Cc2cccc(OCc3ccccc3)c2CC1', '64 to 67 °C'),
  ('COc1cc(NC(=O)c2cccc(CCl)c2)cc(OC)c1OC', '138 to 145 °C'),
  ('CCCc1c(OCC(O)CSc2ccc(C(=O)CCC(=O)O)c(O)c2)ccc(C(C)=O)c1O (stereo not given)', '150 °C'),
  ('CS(=O)(=O)Nc1ccc(N2CCN(c3cnccc3N)CC2)cc1', '246 to 248 °C'),
  ('COc1cc2c(c(Cl)c1Cl)C(=O)C(C)(c1cccs1)C2 (stereo not given)', '145 to 146 °C'),
  ('COc1ccc(Sc2ccc(CC(=O)O)cc2)cc1', '85 to 87 °C'),
  ('CC(=O)N1CCC(CCc2ccc(N(C)C)cc2)CC1', '49 to 51 °C'),
  ('COC(=O)C(C)(C)Sc1cccc(OCc2ccc(-c3ccc([N+](=O)[O-])cc3)o2)c1', '81 to 82 °C'),
  ('COc1cc(CN2CCN(Cc3ccc(NC(=O)C4=Cc5cc(-c6ccc(C)cc6)ccc5CC4)cc3)CC2)cc(OC)c1OC', '143 to 144 °C'),
  ('COc1ccc(C2(Cn3ccn(Cc4ccccc4)c3=O)CC2)cc1OC', '110 °C');
